System: MDA-MB-435
Assay: NCI tumour cell line growth inhibition, 48 h
Listed here: items and their measured TGI.
Property Name: TGI (µM)

compound=O=C(/C(=C(/Br)I)c1ccccc1)c1ccccc1 property_name=TGI unit_symbol=µM reading_qualifier== recorded_number=82.6
compound=CCOP(=O)(OCC)[C@H](O)c1ccsc1 property_name=TGI unit_symbol=µM reading_qualifier=> recorded_number=100
compound=O=C(CCN1CCN(c2cnc3ccccc3n2)CC1)c1csc2ccccc12 property_name=TGI unit_symbol=µM reading_qualifier=> recorded_number=100
compound=O=C(NS(=O)(=O)Nc1ccc(Cl)cc1)OCc1ccc(Cl)cc1Cl property_name=TGI unit_symbol=µM reading_qualifier== recorded_number=50.9
compound=C[C@@H]1CC[C@@H]2[C@@H]1[C@H](OC(=O)/C=C/c1ccccc1)[C@]1(c3ccccc3)C[C@@H](OC(=O)CO)[C@@]2(C)O1 property_name=TGI unit_symbol=µM reading_qualifier== recorded_number=33.2
compound=O=C(Nc1cccc(-n2ccc3c(NC(=O)c4ccccc4)nccc32)c1)c1cccc(C(F)(F)F)c1 property_name=TGI unit_symbol=µM reading_qualifier== recorded_number=0.043
compound="CC(C)=CCN1CC(C)C(=O)Nc2cc(Cl)ccc21 (stereo not given)" property_name=TGI unit_symbol=µM reading_qualifier== recorded_number=52.1
compound=CCN1CCN(c2nc(NCCCNc3ccnc4cc(Cl)ccc34)c3ccccc3n2)CC1 property_name=TGI unit_symbol=µM reading_qualifier== recorded_number=3.53
compound=Cc1cc2nc3c4cc(Cl)ccc4n(CCN(C)C)c3nc2cc1C property_name=TGI unit_symbol=µM reading_qualifier== recorded_number=3.19
compound=O=c1[nH]c2nc3ccccc3c(=O)n2/c1=C/c1ccc(O)cc1 property_name=TGI unit_symbol=µM reading_qualifier== recorded_number=69.8
